// data source = patent US12504423B2

assay: Ranolazine steady-state Cmax in blood serum (FDA documentation); assay type: in vivo; settings: human, 1000 mg, 1000 mg b.i.d., bracketed conversion, read-out: mean steady-state Cmax
Metric name: Cmax (µM)
Numbers only here, please. The scale is µM.

Form field Cmax, entry COc1ccccc1OCC(O)CN1CCN(CC(=O)Nc2c(C)cccc2C)CC1 (stereo not shown) : 6

* * *

test: Ranolazine steady-state Cmax in blood serum (FDA documentation); type: in vivo; conditions: human, 1000 mg, 1000 mg b.i.d., bracketed conversion, read-out: 95% of Cmax values
Metric name: Cmax

The molecule identified as COc1ccccc1OCC(O)CN1CCN(CC(=O)Nc2c(C)cccc2C)CC1 (stereo not shown) registered its Cmax at 0.98 to 14.2 µM
